The values you see were collected from patent US20240327497A1.

# system-name: canine FcRn (FcRn large subunit with canine beta-2-microglobulin) (canine)
# assay-procedure: SPR pH 6.0, IgG coupled to CM5, FcRn 50-800 nM
pKd: −log10 of the molar value.

{"columns": ["binder", "pKd"],
 "data": [
  ["anti-NGF canine IgGB antibody, Fc variant A426Y (antibody, part only; not given: Anti-NGF variable domains, not shown: another chain or arm of the molecule; small tags and cut ends) Fc: APEMLGGPSVFIFPPKPKDTLLIARTPEVTCVVVDLDPEDPEVQISWFVDGKQMQTAKTQPREEQFNGTYRVVSVLPIGHQDWLKGKQFTCKVNNKALPSPIERTISKARGQAHQPSVYVLPPSREELSKNTVSLTCLIKDFFPPDIDVEWQSNGQQEPESKYRTTPPQLDEDGSYFLYSKLSVDKSRWQRGDTFICYVMHEALHNHYTQESLSHSPGK", 5.95],
  ["anti-NGF canine IgGB antibody, Fc variant A426H + T286Y (antibody, part only; not given: anti-NGF variable domains and light chain, not shown: another chain or arm of the molecule; small tags and cut ends) Fc: APEMLGGPSVFIFPPKPKDTLLIARTPEVTCVVVDLDPEDPEVQISWFVDGKQMQYAKTQPREEQFNGTYRVVSVLPIGHQDWLKGKQFTCKVNNKALPSPIERTISKARGQAHQPSVYVLPPSREELSKNTVSLTCLIKDFFPPDIDVEWQSNGQQEPESKYRTTPPQLDEDGSYFLYSKLSVDKSRWQRGDTFICHVMHEALHNHYTQESLSHSPGK", 6.59],
  ["anti-NGF canine IgGB antibody, Fc variant A426Y + Y436H (antibody, part only; not given: anti-NGF variable domains and light chain, not shown: another chain or arm of the molecule; small tags and cut ends) Fc: APEMLGGPSVFIFPPKPKDTLLIARTPEVTCVVVDLDPEDPEVQISWFVDGKQMQTAKTQPREEQFNGTYRVVSVLPIGHQDWLKGKQFTCKVNNKALPSPIERTISKARGQAHQPSVYVLPPSREELSKNTVSLTCLIKDFFPPDIDVEWQSNGQQEPESKYRTTPPQLDEDGSYFLYSKLSVDKSRWQRGDTFICYVMHEALHNHHTQESLSHSPGK", 6.29],
  ["canine IgGA antibody, Fc variant A426Y, variable domain of Gearing et al. 2013 (antibody, part only; not given: Variable domains, not shown: another chain or arm of the molecule; small tags and cut ends) Fc: VPEPLGGPSVLIFPPKPKDILRITRTPEVTCVVLDLGREDPEVQISWFVDGKEVHTAKTQSREQQFNGTYRVVSVLPIEHQDWLTGKEFKCRVNHIDLPSPIERTISKARGRAHKPSVYVLPPSPKELSSSDTVSITCLIKDFYPPDIDVEWQSNGQQEPERKHRMTPPQLDEDGSYFLYSKLSVDKSRWQQGDPFTCYVMHETLQNHYTDLSLSHSPGK", 6.12],
  ["anti-NGF canine IgGB antibody, Fc variant A426H + D312P (antibody, part only; not given: Anti-NGF variable domains, not shown: another chain or arm of the molecule; small tags and cut ends) Fc: APEMLGGPSVFIFPPKPKDTLLIARTPEVTCVVVDLDPEDPEVQISWFVDGKQMQTAKTQPREEQFNGTYRVVSVLPIGHQPWLKGKQFTCKVNNKALPSPIERTISKARGQAHQPSVYVLPPSREELSKNTVSLTCLIKDFFPPDIDVEWQSNGQQEPESKYRTTPPQLDEDGSYFLYSKLSVDKSRWQRGDTFICHVMHEALHNHYTQESLSHSPGK", 6.42],
  ["anti-NGF canine IgGB antibody, Fc variant N434R + Y436H (antibody, part only; not given: Anti-NGF variable domains, not shown: another chain or arm of the molecule) Fc: APEMLGGPSVFIFPPKPKDTLLIARTPEVTCVVVDLDPEDPEVQISWFVDGKQMQTAKTQPREEQFNGTYRVVSVLPIGHQDWLKGKQFTCKVNNKALPSPIERTISKARGQAHQPSVYVLPPSREELSKNTVSLTCLIKDFFPPDIDVEWQSNGQQEPESKYRTTPPQLDEDGSYFLYSKLSVDKSRWQRGDTFICAVMHEALHRHHTQESLSHSPGK", 6.49],
  ["anti-NGF canine IgGB antibody, Fc variant N434Y (antibody, part only; not given: Anti-NGF variable domains, not shown: another chain or arm of the molecule) Fc: APEMLGGPSVFIFPPKPKDTLLIARTPEVTCVVVDLDPEDPEVQISWFVDGKQMQTAKTQPREEQFNGTYRVVSVLPIGHQDWLKGKQFTCKVNNKALPSPIERTISKARGQAHQPSVYVLPPSREELSKNTVSLTCLIKDFFPPDIDVEWQSNGQQEPESKYRTTPPQLDEDGSYFLYSKLSVDKSRWQRGDTFICAVMHEALHYHYTQESLSHSPGK", 7.15],
  ["canine IgGA antibody with wild-type IgGA Fc and the variable domain of Gearing et al. 2013 (antibody, part only; not given: variable domains and light chain, not shown: another chain or arm of the molecule; small tags and cut ends) Fc: VPEPLGGPSVLIFPPKPKDILRITRTPEVTCVVLDLGREDPEVQISWFVDGKEVHTAKTQSREQQFNGTYRVVSVLPIEHQDWLTGKEFKCRVNHIDLPSPIERTISKARGRAHKPSVYVLPPSPKELSSSDTVSITCLIKDFYPPDIDVEWQSNGQQEPERKHRMTPPQLDEDGSYFLYSKLSVDKSRWQQGDPFTCAVMHETLQNHYTDLSLSHSPGK", 5.22],
  ["anti-NGF canine IgGB antibody, Fc variant N434R + T286L (antibody, part only; not given: Anti-NGF variable domains, not shown: another chain or arm of the molecule) Fc: APEMLGGPSVFIFPPKPKDTLLIARTPEVTCVVVDLDPEDPEVQISWFVDGKQMQLAKTQPREEQFNGTYRVVSVLPIGHQDWLKGKQFTCKVNNKALPSPIERTISKARGQAHQPSVYVLPPSREELSKNTVSLTCLIKDFFPPDIDVEWQSNGQQEPESKYRTTPPQLDEDGSYFLYSKLSVDKSRWQRGDTFICAVMHEALHRHYTQESLSHSPGK", 6.76],
  ["canine IgGA antibody, Fc variant A426H, variable domain of Gearing et al. 2013 (antibody, part only; not given: Variable domains, not shown: another chain or arm of the molecule; small tags and cut ends) Fc: VPEPLGGPSVLIFPPKPKDILRITRTPEVTCVVLDLGREDPEVQISWFVDGKEVHTAKTQSREQQFNGTYRVVSVLPIEHQDWLTGKEFKCRVNHIDLPSPIERTISKARGRAHKPSVYVLPPSPKELSSSDTVSITCLIKDFYPPDIDVEWQSNGQQEPERKHRMTPPQLDEDGSYFLYSKLSVDKSRWQQGDPFTCHVMHETLQNHYTDLSLSHSPGK", 5.84],
  ["anti-NGF canine IgGB antibody, Fc variant A426H (antibody, part only; not given: Anti-NGF variable domains, not shown: another chain or arm of the molecule; small tags and cut ends) Fc: APEMLGGPSVFIFPPKPKDTLLIARTPEVTCVVVDLDPEDPEVQISWFVDGKQMQTAKTQPREEQFNGTYRVVSVLPIGHQDWLKGKQFTCKVNNKALPSPIERTISKARGQAHQPSVYVLPPSREELSKNTVSLTCLIKDFFPPDIDVEWQSNGQQEPESKYRTTPPQLDEDGSYFLYSKLSVDKSRWQRGDTFICHVMHEALHNHYTQESLSHSPGK", 5.98]
]}
